These measurements were taken from ChEMBL document CHEMBL1134724.

- testTarget: 5-hydroxytryptamine receptor 1B (Homo sapiens)
- Sequence (P28222 whole entry): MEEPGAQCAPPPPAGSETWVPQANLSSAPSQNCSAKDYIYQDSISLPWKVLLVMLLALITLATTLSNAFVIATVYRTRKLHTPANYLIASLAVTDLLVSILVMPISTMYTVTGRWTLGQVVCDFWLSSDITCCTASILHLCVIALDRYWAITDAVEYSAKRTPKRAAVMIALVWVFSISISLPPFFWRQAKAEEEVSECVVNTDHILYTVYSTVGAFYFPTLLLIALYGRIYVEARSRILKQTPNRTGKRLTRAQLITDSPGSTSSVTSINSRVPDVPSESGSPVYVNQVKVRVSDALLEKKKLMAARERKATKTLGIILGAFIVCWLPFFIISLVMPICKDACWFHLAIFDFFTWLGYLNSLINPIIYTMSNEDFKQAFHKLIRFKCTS
- methodSummary: Binding affinity to human cloned 5-hydroxytryptamine 1B receptor in CHO cells using [3H]5-HT as radioligand
measurementKind: Ki (nM)
Report the figure in nM without appending any unit label.

# input Find the measured Ki of Cc1c(S(=O)(=O)Nc2ccc3nccc(N4CCN[C@@H](C)C4)c3c2)sc2ccc(Cl)cc12 and report it.
# output 2510

# input Find the measured Ki of Cc1c(S(=O)(=O)Nc2ccc3nccc(N4CCNCC4)c3c2)sc2ccc(Cl)cc12 and report it.
# output 2000

# input Find the measured Ki of O=S(=O)(Nc1ccc2nccc(N3CCNCC3)c2c1)c1ccc(-c2ccccc2)cc1 and report it.
# output 316

# input Find the measured Ki of O=S(=O)(Nc1ccc2nccc(N3CCNCC3)c2c1)c1ccc2c(Cl)cccc2c1 and report it.
# output 631

# input Find the measured Ki of CCc1c(S(=O)(=O)Nc2ccc3nccc(N4CCNCC4)c3c2)sc2ccc(Cl)cc12 and report it.
# output 3160

----------
- testTarget: 5-hydroxytryptamine receptor 1A (Homo sapiens)
- Sequence (P08908 whole entry): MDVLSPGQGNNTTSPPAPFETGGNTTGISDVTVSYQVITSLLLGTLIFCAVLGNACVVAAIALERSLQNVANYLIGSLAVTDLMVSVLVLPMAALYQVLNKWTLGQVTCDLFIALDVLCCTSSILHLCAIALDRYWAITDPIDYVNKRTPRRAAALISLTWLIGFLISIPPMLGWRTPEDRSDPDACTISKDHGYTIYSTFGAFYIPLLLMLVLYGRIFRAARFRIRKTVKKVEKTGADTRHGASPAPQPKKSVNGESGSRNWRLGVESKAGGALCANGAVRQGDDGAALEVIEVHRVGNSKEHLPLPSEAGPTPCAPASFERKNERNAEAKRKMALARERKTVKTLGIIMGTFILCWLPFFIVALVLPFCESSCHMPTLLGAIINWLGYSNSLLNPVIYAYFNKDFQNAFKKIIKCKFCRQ
- methodSummary: Binding affinity to human cloned 5-hydroxytryptamine 1A receptor in HEK 293 cells using [3H]-8-OH- DPAT as radioligand
measurementKind: pKi
Answer as the number alone; pKi is minus log10 of concentration in mol/L.

# input Find the measured pKi of Cc1c(S(=O)(=O)Nc2ccc3nccc(N4CCN(C)CC4)c3c2)sc2ccc(Cl)cc12 and report it.
# output 6.10

# input Find the measured pKi of Cc1c(S(=O)(=O)Nc2ccc3nccc(N4CCN[C@@H](C)C4)c3c2)sc2ccc(Cl)cc12 and report it.
# output 6.00

# input Find the measured pKi of O=S(=O)(Nc1ccc2nccc(N3CCNCC3)c2c1)c1ccc(-c2ccccc2)cc1 and report it.
# output 6.20

# input Find the measured pKi of CC(C)(C)c1ccc(S(=O)(=O)Nc2ccc3nccc(N4CCNCC4)c3c2)cc1 and report it.
# output 6.10

# input Find the measured pKi of O=S(=O)(Nc1ccc2nccc(N3CCNCC3)c2c1)c1ccc2c(Cl)cccc2c1 and report it.
# output 6.80

# input Find the measured pKi of Cc1sc2ccc(Cl)cc2c1S(=O)(=O)Nc1ccc2nccc(N3CCNCC3)c2c1 and report it.
# output 6.60

# input Find the measured pKi of Cc1c(S(=O)(=O)Nc2ccc3nccc(N4CCNCC4)c3c2)sc2ccc(Cl)cc12 and report it.
# output 6.00

# input Find the measured pKi of Cc1cc(N2CCNCC2)c2cc(NS(=O)(=O)c3sc4ccc(Cl)cc4c3C)ccc2n1 and report it.
# output 6.10
